molecular target: AMPKα2-containing trimeric complexes (Homo sapiens); experiment: In vitro AMPK activity assay, both α2 complexes summarised in text
Sequence (P54646 whole entry): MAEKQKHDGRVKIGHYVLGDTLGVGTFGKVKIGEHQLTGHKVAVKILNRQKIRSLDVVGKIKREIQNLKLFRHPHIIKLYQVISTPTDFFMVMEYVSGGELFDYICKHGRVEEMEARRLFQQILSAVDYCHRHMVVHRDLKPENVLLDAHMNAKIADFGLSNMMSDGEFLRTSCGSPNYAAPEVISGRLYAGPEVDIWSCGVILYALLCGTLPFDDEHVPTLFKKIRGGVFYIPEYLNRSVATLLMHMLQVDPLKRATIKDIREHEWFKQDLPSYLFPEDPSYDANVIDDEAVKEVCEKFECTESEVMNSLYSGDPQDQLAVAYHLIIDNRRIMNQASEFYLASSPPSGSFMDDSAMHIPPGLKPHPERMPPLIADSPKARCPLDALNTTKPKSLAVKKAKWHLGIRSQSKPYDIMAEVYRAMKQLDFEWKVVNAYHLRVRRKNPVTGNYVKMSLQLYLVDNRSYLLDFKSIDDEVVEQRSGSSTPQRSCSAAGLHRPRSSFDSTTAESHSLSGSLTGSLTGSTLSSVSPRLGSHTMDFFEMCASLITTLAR
Sequence (P54619 whole entry partner): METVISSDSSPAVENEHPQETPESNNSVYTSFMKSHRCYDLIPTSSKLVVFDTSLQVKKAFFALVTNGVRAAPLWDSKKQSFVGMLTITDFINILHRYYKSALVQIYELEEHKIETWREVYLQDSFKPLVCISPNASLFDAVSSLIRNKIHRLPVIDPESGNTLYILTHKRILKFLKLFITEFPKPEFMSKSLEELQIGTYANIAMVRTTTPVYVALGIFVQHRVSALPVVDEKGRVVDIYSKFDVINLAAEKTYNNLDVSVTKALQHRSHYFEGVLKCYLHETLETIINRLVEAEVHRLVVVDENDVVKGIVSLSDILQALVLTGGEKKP
Sequence (Q9Y478 2-270 partner): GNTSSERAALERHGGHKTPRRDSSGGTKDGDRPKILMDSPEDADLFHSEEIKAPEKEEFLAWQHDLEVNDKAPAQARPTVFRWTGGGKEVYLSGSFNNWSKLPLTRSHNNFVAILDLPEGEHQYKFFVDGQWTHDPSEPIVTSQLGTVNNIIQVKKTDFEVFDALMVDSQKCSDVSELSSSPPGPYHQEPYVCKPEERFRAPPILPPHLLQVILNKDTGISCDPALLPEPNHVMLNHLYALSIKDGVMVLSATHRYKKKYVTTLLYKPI
Sequence (O43741 whole entry partner): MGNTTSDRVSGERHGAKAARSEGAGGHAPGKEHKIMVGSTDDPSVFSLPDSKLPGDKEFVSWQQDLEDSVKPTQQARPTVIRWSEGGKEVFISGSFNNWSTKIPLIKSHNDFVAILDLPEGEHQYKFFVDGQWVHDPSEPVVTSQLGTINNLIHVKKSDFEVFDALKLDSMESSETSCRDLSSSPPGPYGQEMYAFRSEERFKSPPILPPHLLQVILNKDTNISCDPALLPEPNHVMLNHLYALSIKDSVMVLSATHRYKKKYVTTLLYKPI
Experimental endpoint: IC50

Q: Would you mind telling me what IC50 value was observed for O=C(O)c1ccc2c3c1cccc3c(=O)n1c3ccccc3nc21 ?
A: 700 to 2000 nM
